Subject of test: PDGFRA (Homo sapiens, UniProt P16234)
Construct: purchased Thermo Fisher Scientific (SelectScreen service)
Sequence (P16234 24-1089): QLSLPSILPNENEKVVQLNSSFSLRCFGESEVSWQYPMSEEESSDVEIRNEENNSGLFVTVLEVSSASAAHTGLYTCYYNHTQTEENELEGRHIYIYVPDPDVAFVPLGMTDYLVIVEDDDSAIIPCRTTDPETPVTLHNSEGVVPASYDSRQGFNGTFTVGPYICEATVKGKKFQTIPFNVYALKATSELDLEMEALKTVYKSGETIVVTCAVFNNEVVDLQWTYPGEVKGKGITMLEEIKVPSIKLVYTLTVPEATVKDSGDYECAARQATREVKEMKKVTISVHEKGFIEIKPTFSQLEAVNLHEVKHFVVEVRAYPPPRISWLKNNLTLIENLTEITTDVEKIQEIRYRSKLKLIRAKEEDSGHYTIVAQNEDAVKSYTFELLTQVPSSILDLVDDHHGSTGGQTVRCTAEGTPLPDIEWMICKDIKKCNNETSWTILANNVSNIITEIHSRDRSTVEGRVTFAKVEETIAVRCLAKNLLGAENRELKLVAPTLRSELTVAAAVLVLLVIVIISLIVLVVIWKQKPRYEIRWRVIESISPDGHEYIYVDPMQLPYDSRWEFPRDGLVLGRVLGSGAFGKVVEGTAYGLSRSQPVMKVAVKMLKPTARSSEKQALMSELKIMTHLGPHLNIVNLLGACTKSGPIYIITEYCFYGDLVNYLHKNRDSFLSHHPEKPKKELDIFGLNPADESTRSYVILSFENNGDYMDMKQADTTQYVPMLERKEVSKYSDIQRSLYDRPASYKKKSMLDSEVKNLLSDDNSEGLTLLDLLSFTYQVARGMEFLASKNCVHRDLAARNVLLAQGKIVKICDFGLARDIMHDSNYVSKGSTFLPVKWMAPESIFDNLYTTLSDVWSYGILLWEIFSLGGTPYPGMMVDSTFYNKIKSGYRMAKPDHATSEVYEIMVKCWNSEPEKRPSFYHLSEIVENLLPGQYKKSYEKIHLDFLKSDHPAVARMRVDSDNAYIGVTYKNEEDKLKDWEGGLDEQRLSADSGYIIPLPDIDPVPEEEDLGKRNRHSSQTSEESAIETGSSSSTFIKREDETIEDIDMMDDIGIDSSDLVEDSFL
Experiment summary: SelectScreen kinase selectivity assay
Format: biochemical
Readout type: IC50

Notebook: Cc1ccc(O)c(C)c1-n1c(N)c(C(N)=O)c2cc(CCCCCC(=O)NO)c(C)nc21 [PKHD-5] , IC50 read as > 50 µM
